biological target: T1, histidine-tagged human SIRPA v1 (Novoprotein) (human, UniProt P78324 31-370, limits assumed); test: BLI (Octet), antibody on anti-human IgG Fc sensor, His-huSIRPA in solution, single-curve 1:1 fit
T1 construct: bought, soluble; also called huSIRPA; soluble huSIRPA; not shown: histidine tag
T1 sequence (P78324 31-370 limits assumed): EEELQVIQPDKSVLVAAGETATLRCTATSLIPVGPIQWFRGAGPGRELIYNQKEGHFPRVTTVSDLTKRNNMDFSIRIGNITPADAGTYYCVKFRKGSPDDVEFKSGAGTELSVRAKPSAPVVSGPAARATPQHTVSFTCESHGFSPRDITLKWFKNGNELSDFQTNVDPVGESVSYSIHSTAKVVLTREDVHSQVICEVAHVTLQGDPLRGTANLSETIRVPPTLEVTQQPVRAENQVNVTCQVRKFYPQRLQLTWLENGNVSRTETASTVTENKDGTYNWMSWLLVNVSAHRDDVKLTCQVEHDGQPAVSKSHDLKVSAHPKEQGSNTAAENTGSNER
List of kon values.
Please reply with the bare figure in M⁻¹ s⁻¹ and do not write the unit itself.

[ask] Consider the binder shown here: 3F9-4 (antibody, human IgG1, V domains shown, also called mAb 3F9-4) VH: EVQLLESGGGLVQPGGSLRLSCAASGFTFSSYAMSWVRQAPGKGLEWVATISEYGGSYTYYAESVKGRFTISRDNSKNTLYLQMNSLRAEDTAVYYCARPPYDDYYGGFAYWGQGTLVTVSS VL: DIQLTQSPSSLSASVGDRVTITCRASKSVSSGGYSYMHWYQQKPGKAPKLLIYLASNLESGVPSRFSGSGSGTDFTLTISSVQPEDFATYYCQHNRELPPTFGQGTKLEIK What is its recorded kon?
[reply] 113000

[ask] Consider the binder shown here: 3F9-1 (antibody, human IgG1, V domains shown, also called mAb 3F9-1) VH: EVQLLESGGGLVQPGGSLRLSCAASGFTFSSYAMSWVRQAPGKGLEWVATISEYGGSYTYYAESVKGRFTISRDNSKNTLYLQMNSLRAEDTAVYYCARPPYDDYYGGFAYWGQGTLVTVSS VL: DIQLTQSPSSLSASVGDRVTITCRASKSVSSGGYSYMHWYQQKPGKAPKLLIYLASNLESGVPSRFSGSGSGTDFTLTISSVQPEDFATYYCQHNRELPSTFGQGTKLEIK What is its recorded kon?
[reply] 106000

[ask] Consider the binder shown here: 3F9-19 (antibody, human IgG1, V domains shown, also called mAb 3F9-19) VH: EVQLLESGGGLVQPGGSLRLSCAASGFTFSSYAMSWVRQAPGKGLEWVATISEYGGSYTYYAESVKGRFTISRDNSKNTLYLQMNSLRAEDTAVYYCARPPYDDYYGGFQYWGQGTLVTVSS VL: DIQLTQSPSSLSASVGDRVTITCRASKSVSSGGYSYMHWYQQKPGKAPKLLIYLASNLESGVPSRFSGSGSGTDFTLTISSVQPEDFATYYCQHNRELPITFGQGTKLEIK What is its recorded kon?
[reply] 141000
